- Test system: VchCAST RNA-guided transposition machinery (E. coli BL21(DE3) host, lacZ target)
- assay.method.text: relative integration efficiency (T-LR orientation) vs wild-type transposon end (log2 (normalized fold change)); transposon end mutated: right end (5 bp flank + 75 bp right end); higher = more efficient transposition
endpoint.name: relative integration efficiency (log2)

residues: ACATTTGTTGATACACCCATAAATTGATAATTACAACCATAAAGTGATATTTATCACACCCATAAATTGATAATTACTCTGATCATAGTCAGACCAACATTGCTACGACCCGTATTCGCACCGACAC
measurement: -0.96

residues: ACATTTGTTGATACAACCATAAAATGAATTATACACCCATAAATTGATAATTATCACACCCATAAATTGATATTGCCTCTGATCATAGTCAGACCAACATTGCTACGACCCGTATTCGCACCGACAC
measurement: -0.0536

residues: CAAAATGTAAAAAAAACCATACGTTGATTTTACCACCCATAAATTGATAATTAAAACAACCATACCTTGAAATTGCTTATAAAGTGTACAACACTTGAGAAAGTTTACTACAGGTATGCACCGACAC
measurement: -2.89

residues: ACATTTGTTGATACAACCATAAAATGATAATTACACCCATAAATTGATAATTATCCACACCATAAATTGATATTGCCTCTGATCATAGTCAGACCAACATTGCTACGACCCGTATTCGCACCGACAC
measurement: 0.485

residues: ACATTTGTTGATACAACCATAAAAGGATAATTACCCCCATCAATTGATAATTATCACACCCCATTTAACTATAACGCTCTGATCATAGTCAGACCAACATTGCTACGACCCGTATTCGCACCGACAC
measurement: -0.157
